- system_name: ER-α in MCF-7 cells harboring ER wild type (Homo sapiens)
- Construct: evaluated in MCF-7 cells harboring ER wild type; endogenous in cells; host or cells: MCF-7
- Sequence (P03372 1-595): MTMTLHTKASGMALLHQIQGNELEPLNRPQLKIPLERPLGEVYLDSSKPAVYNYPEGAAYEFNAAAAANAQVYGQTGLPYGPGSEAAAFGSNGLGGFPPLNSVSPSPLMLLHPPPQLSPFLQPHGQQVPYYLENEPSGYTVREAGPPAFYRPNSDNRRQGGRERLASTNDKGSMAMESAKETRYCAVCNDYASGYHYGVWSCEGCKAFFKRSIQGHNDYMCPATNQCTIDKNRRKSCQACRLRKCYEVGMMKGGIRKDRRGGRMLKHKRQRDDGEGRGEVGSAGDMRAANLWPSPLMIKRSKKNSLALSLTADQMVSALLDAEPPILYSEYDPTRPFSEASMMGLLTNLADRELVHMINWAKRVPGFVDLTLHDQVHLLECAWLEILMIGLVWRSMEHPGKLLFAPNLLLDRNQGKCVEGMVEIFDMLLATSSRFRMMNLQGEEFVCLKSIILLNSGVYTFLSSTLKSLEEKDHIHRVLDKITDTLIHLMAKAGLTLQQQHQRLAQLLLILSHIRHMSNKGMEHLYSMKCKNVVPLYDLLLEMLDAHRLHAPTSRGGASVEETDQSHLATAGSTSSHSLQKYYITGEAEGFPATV
- assay_overview: ER-α degradation (SERD) assay, MCF-7 wild type
- Format: cell-based
- condition: MCF-7 Wt, 1 nM
measured_metric: SERD activity (in words)

- molecule: "CC1=C(c2cc(F)cc(F)c2)C(c2ccc(/C=C/CN3CCC(CF)CC3)cc2)Oc2cc(O)ccc21 (racemic)"
  system_name: "ER-α in MCF-7 cells harboring ER wild type (Homo sapiens)"
  recorded_value: "negligible SERD activity"
- molecule: "CC1=C(c2cc(F)cc(F)c2)C(c2ccc(/C=C/CN3CC[C@@H](C)C3)cc2)Oc2cc(O)ccc21 (mixture of isomers)"
  system_name: "ER-α in MCF-7 cells harboring ER wild type (Homo sapiens)"
  recorded_value: "negligible SERD activity"
- molecule: "CC1=C(c2cc(F)cc(F)c2)C(c2ccc(/C=C/CN3CC[C@@H](CF)C3)cc2)Oc2cc(O)ccc21 (mixture of isomers)"
  system_name: "ER-α in MCF-7 cells harboring ER wild type (Homo sapiens)"
  recorded_value: "negligible SERD activity"

* * *

- Test system: MCF-7 cells harboring mutant ER (WT/D538G)
- assay_overview: MCF-7 cell growth inhibition assay, D538G
- Assay type: cell-based
- condition: Homo sapiens, MCF7, 168 h; MCF-7 D538G, seven-day incubation

- smiles_repr: "CC1=C(c2cc(F)cc(F)c2)[C@@H](c2ccc(/C=C/CN3CC(CF)C3)cc2)Oc2cc(O)ccc21"
  readout_unit: "nM"
  IC50: 345
- smiles_repr: "CC1=C(c2cc(F)cc(F)c2)[C@H](c2ccc(/C=C/CN3CC(CF)C3)cc2)Oc2cc(O)ccc21"
  readout_unit: "nM"
  IC50: 2.2

* * *

- assay_overview: Pharmacokinetic study in female SD rats, single oral dose
- Format: in vivo
- condition: female, SD, plasma, po; rat, 50 mg/kg p.o.
Below, each of the molecules is paired with its reported Cmax value.
measured_metric: Cmax

- molecule: "CC1=C(c2cc(F)cc(F)c2)[C@H](c2ccc(/C=C/CN3CC(CF)C3)cc2)Oc2cc(O)ccc21 [Formula Ia]"
  measured_metric: "Cmax"
  recorded_value: "343 ng/mL"
- molecule: "CC1=C(c2cc(F)cc(F)c2)[C@@H](c2ccc(/C=C/CN3CC(CF)C3)cc2)Oc2cc(O)ccc21 [Formula Ib]"
  measured_metric: "Cmax"
  recorded_value: "119 ng/mL"

* * *

Below, each of the molecules is paired with its reported AUC(0-inf) value.
- assay_overview: Pharmacokinetic study in female SD rats, single oral dose
- Format: in vivo
- condition: female, SD, plasma, po; rat, 50 mg/kg p.o.; read-out: AUCinf_obs

- smiles_repr: "CC1=C(c2cc(F)cc(F)c2)[C@H](c2ccc(/C=C/CN3CC(CF)C3)cc2)Oc2cc(O)ccc21"
  readout_unit: "ng·h/mL"
  AUC(0-inf): 9800
- smiles_repr: "CC1=C(c2cc(F)cc(F)c2)[C@@H](c2ccc(/C=C/CN3CC(CF)C3)cc2)Oc2cc(O)ccc21"
  readout_unit: "ng·h/mL"
  AUC(0-inf): 2360

* * *

- system_name: ER-α in MCF-7 cells harboring ER wild type (Homo sapiens, UniProt P03372)
- Construct: evaluated in MCF-7 cells harboring ER wild type; endogenous in cells; host or cells: MCF-7
- assay_overview: ER-α degradation (SERD) assay, MCF-7 wild type
- Format: cell-based
- condition: MCF-7 Wt, 1 nM, 4 days, western blot, vehicle control as 100%
Below, each of the compounds is paired with its reported % of ER-α remaining at 1 nM value.

- compound: "CC1=C(c2cc(F)cc(F)c2)C(c2ccc(/C=C/CN3CC(CF)C3)cc2)Oc2ccc(O)cc21 (racemic)"
  system_name: "ER-α in MCF-7 cells harboring ER wild type (Homo sapiens, UniProt P03372)"
  % of ER-α remaining at 1 nM (%): 100
- compound: "CC1=C(c2cc(F)cc(F)c2)C(c2ccc(/C=C\\CN3CC(CF)C3)cc2)Oc2cc(O)ccc21 (racemic)"
  system_name: "ER-α in MCF-7 cells harboring ER wild type (Homo sapiens, UniProt P03372)"
  % of ER-α remaining at 1 nM (%): 80.8
- compound: "CC1=C(c2cc(F)cc(F)c2)[C@H](c2ccc(/C=C/CN3CC(CF)C3)cc2)Oc2cc(O)ccc21"
  system_name: "ER-α in MCF-7 cells harboring ER wild type (Homo sapiens, UniProt P03372)"
  % of ER-α remaining at 1 nM (%): 16.3
- compound: "CC1=C(c2cc(F)cc(F)c2)C(c2ccc(C#CCN3CC(CF)C3)cc2)Oc2cc(O)ccc21 (racemic)"
  system_name: "ER-α in MCF-7 cells harboring ER wild type (Homo sapiens, UniProt P03372)"
  % of ER-α remaining at 1 nM (%): 100
- compound: "CC1=C(c2cc(F)cc(F)c2)[C@@H](c2ccc(/C=C/CN3CC(CF)C3)cc2)Oc2cc(O)ccc21"
  system_name: "ER-α in MCF-7 cells harboring ER wild type (Homo sapiens, UniProt P03372)"
  % of ER-α remaining at 1 nM (%): 81.5

* * *

- assay_overview: Pharmacokinetic study in female SD rats, single oral dose
- Type: in vivo
- condition: female, SD, plasma, po; rat, 50 mg/kg p.o.
Below, each of the compounds is paired with its reported Tmax value.
measured_metric: Tmax (h)

- compound: "CC1=C(c2cc(F)cc(F)c2)[C@H](c2ccc(/C=C/CN3CC(CF)C3)cc2)Oc2cc(O)ccc21 [Formula Ia]"
  readout_unit: "h"
  recorded_value: 4
- compound: "CC1=C(c2cc(F)cc(F)c2)[C@@H](c2ccc(/C=C/CN3CC(CF)C3)cc2)Oc2cc(O)ccc21 [Formula Ib]"
  readout_unit: "h"
  recorded_value: 4

* * *

- assay_overview: Pharmacokinetic study in female SD rats, single oral dose
- Type: in vivo
- condition: female, SD, plasma, po; rat, 50 mg/kg p.o.

- smiles_repr: "CC1=C(c2cc(F)cc(F)c2)[C@H](c2ccc(/C=C/CN3CC(CF)C3)cc2)Oc2cc(O)ccc21"
  AUC(0-t): "7580 ng·h/mL"
- smiles_repr: "CC1=C(c2cc(F)cc(F)c2)[C@@H](c2ccc(/C=C/CN3CC(CF)C3)cc2)Oc2cc(O)ccc21"
  AUC(0-t): "1800 ng·h/mL"
